Provide the recorded TXA2 Biosynthesis Inhibitory Activity Inhibition Rate for the entries that follow.
Test system: TXA2 biosynthesis
PROTOCOL: TXA2 biosynthesis inhibitory test (bovine platelet microsome, TXB2 by radioimmunoassay)
Assay type: biochemical
CONDITION DETAILS: in 10 μM
Note: a bare number is incomplete; add the unit.

Problem: Would you mind telling me what TXA2 Biosynthesis Inhibitory Activity Inhibition Rate value was observed for C/C(=C\c1ccc(Cc2cccnc2)cc1)C(=O)O [OKY 1581, reference compound] ?
Solution: 100%

Problem: Would you mind telling me what TXA2 Biosynthesis Inhibitory Activity Inhibition Rate value was observed for COc1ccc2ncn(C/C=C3\c4ccccc4COc4ccc(C(=O)O)cc43)c2c1 [Compound E-62b] ?
Solution: 11%

Problem: Would you mind telling me what TXA2 Biosynthesis Inhibitory Activity Inhibition Rate value was observed for O=C(O)c1ccc2c(c1)C(SCc1cccnc1)c1ccccc1CO2 (centres unmarked) [Compound 14b] ?
Solution: 100%

Problem: Would you mind telling me what TXA2 Biosynthesis Inhibitory Activity Inhibition Rate value was observed for Cn1cnnc1SC/C=C1\c2ccccc2COc2ccc(C(=O)O)cc21 [Compound E-156b] ?
Solution: -10%

Problem: Would you mind telling me what TXA2 Biosynthesis Inhibitory Activity Inhibition Rate value was observed for O=C(O)c1ccc2c(c1)C(NCc1cccnc1)c1ccccc1CO2 (centres unmarked) ?
Solution: 100%

====

Provide the recorded TXA2 Antagonizing Activity (MEC) for the entries that follow.
TARGET ENTITY: TXA2 /prostaglandin H2 receptor (Cavia porcellus)
Construct: platelet rich plasma (PRP) was obtained; endogenous in cells; host or cells: guinea pig (Hartley) platelets in platelet rich plasma
Sequence (A0A286Y4I8 1-347): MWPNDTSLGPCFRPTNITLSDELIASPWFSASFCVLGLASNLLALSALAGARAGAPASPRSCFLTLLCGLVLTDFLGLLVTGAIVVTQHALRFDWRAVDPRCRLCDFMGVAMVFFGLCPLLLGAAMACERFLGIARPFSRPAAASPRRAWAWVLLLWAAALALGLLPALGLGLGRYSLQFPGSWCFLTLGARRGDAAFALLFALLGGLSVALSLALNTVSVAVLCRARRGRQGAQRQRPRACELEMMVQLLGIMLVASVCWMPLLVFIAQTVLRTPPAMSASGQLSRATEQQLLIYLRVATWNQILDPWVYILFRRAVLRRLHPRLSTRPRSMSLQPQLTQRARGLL
PROTOCOL: Anti-aggregatory effect: inhibition of platelet aggregation induced by U-46619 (TXA2-antagonizing action)
Format: cell-based, guinea pig (Hartley strain)
CONDITION DETAILS: minimum concentration inhibiting aggregation by 30% or more; U-46619 0.5-1 μM; guinea pig PRP
Protocol: TEST ON ANTI A[…] (TXA2 -AN[…]) […] Male guinea pig (Hartley strain; body weight, 300 to 600 g) was anesthesized by intraperitoneal administration of sodium pentobarbital (30 mg/kg) and blood was collected from the descending aorta of the abdomen with a 1/10 volume of 3.8% trisodium citrate. […] A test compound was pretreated for 3 minutes and the ability to inhibit aggregation was determined. […]
Reply with just the number (in µg/mL).

Problem: Tell me reported TXA2 Antagonizing Activity (MEC) for O=C(O)c1ccc2c(c1)C(NCc1cccnc1)c1ccccc1CO2 (centres unmarked) , tested with TXA2 /prostaglandin H2 receptor (Cavia porcellus).
Solution: 30

Problem: Tell me reported TXA2 Antagonizing Activity (MEC) for C/C(=C\c1ccc(Cc2cccnc2)cc1)C(=O)O [OKY 1581, reference compound] , tested with TXA2 /prostaglandin H2 receptor (Cavia porcellus).
Solution: 30

Problem: Tell me reported TXA2 Antagonizing Activity (MEC) for O=C(O)c1ccc2c(c1)C(SCc1cccnc1)c1ccccc1CO2 (centres unmarked) [Compound 14b] , tested with TXA2 /prostaglandin H2 receptor (Cavia porcellus).
Solution: 3

Problem: Tell me reported TXA2 Antagonizing Activity (MEC) for COc1ccc2ncn(C/C=C3\c4ccccc4COc4ccc(C(=O)O)cc43)c2c1 [Compound E-62b] , tested with TXA2 /prostaglandin H2 receptor (Cavia porcellus).
Solution: 1

Problem: Tell me reported TXA2 Antagonizing Activity (MEC) for O=C(O)c1ccc2c(c1)/C(=C/Cn1ccnc1)c1ccccc1CO2 [Compound E-37b', hydrate] , tested with TXA2 /prostaglandin H2 receptor (Cavia porcellus).
Solution: 3

Problem: Tell me reported TXA2 Antagonizing Activity (MEC) for CN(C)CC/C=C1/c2ccccc2COc2ccc(CC(=O)O)cc21 [KW 4679, reference compound] , tested with TXA2 /prostaglandin H2 receptor (Cavia porcellus).
Solution: 30

Problem: Tell me reported TXA2 Antagonizing Activity (MEC) for COc1ccc2c(c1)ncn2C/C=C1\c2ccccc2COc2ccc(C(=O)O)cc21 [Compound E-61b] , tested with TXA2 /prostaglandin H2 receptor (Cavia porcellus).
Solution: 0.1

Problem: Tell me reported TXA2 Antagonizing Activity (MEC) for Cn1cnnc1SC/C=C1\c2ccccc2COc2ccc(C(=O)O)cc21 [Compound E-156b] , tested with TXA2 /prostaglandin H2 receptor (Cavia porcellus).
Solution: 1.0

Problem: Tell me reported TXA2 Antagonizing Activity (MEC) for O=C(O)Cc1ccc(CCNS(=O)(=O)c2ccc(Cl)cc2)cc1 [BM13505, reference compound] , tested with TXA2 /prostaglandin H2 receptor (Cavia porcellus).
Solution: 0.1

Problem: Tell me reported TXA2 Antagonizing Activity (MEC) for COc1cc2ncn(C/C=C3\c4ccccc4COc4ccc(C(=O)O)cc43)c2cc1OC [Compound E-101b] , tested with TXA2 /prostaglandin H2 receptor (Cavia porcellus).
Solution: 0.3

Problem: Tell me reported TXA2 Antagonizing Activity (MEC) for O=C(O)c1ccc2c(c1)C(=NCc1cccnc1)c1ccccc1CO2 [Compound 25b] , tested with TXA2 /prostaglandin H2 receptor (Cavia porcellus).
Solution: 1
